Molecular target: T1, recombinant C-terminally truncated RSV (A2 strain) F protein (RSV (A2 strain), UniProt P03420 26-524)
T1 construct: extracellular domain; also called truncated F protein; extracellular domain of the F protein from RSV A2
T1 sequence (P03420 26-109, chain 1 of 2): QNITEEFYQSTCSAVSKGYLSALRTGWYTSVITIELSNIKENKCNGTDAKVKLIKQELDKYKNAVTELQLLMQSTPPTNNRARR
T1 sequence (P03420 137-524, chain 2 of 2): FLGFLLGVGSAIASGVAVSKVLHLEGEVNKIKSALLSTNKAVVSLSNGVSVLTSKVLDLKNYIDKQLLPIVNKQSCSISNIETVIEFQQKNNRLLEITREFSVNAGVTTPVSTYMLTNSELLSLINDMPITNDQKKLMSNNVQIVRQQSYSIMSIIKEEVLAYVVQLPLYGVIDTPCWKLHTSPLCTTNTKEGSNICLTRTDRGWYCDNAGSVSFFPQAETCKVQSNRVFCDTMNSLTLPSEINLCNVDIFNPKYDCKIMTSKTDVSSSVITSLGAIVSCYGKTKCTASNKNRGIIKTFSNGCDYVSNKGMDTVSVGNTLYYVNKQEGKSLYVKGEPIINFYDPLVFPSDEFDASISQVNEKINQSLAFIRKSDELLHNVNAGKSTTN
Experiment: SPR (BIAcore), Fab over immobilised F
reported.metric: koff

Prompt: Query: koff; subject: AFFG Fab (Fab, name in Kabat numbering, V domains shown) VH: QVTLRESGPALVKPTQTLTLTCTFSGFSLSTAGMSVGWIRQPPGKALEWLADIWWDDKKDYNPSLKSRLTISKDTSKNQVVLKVTNMDPADTATYYCARSMITNFYFDVWGQGTTVTVSS VL: DIQMTQSPSTLSASVGDRVTITCSASSSVGYMHWYQQKPGKAPKLLIYDTFKLASGVPSRFSGSGSGTEFTLTISSLQPDDFATYYCFQGSGYPFTFGGGTKVEIK
Completion: ≤ 5e-06 s⁻¹

Prompt: What value of measured koff is listed for AFFF(1) Fab (Fab, V domains shown, also called AHH(1)) VH: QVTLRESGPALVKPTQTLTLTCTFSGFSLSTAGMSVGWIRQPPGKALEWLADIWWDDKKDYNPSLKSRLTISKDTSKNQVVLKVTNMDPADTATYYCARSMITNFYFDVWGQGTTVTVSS VL: DIQMTQSPSTLSASVGDRVTITCSASSSVGYMHWYQQKPGKAPKLLIYDTFKLASGVPSRFSGSGSGTEFTLTISSLQPDDFATYYCFQGSFYPFTFGGGTKVEIK ?
Completion: ≤ 5e-06 s⁻¹

Now let's try a different one.
Prompt: Quick one: koff for PFFF Fab (Fab, name in Kabat numbering, V domains shown) VH: QVTLRESGPALVKPTQTLTLTCTFSGFSLSTPGMSVGWIRQPPGKALEWLADIWWDDKKDYNPSLKSRLTISKDTSKNQVVLKVTNMDPADTATYYCARSMITNFYFDVWGQGTTVTVSS VL: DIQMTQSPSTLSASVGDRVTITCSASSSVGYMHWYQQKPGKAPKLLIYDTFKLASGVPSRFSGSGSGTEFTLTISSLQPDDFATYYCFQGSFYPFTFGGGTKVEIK ?
Completion: ≤ 5e-06 s⁻¹
